Tested on: normal rats
Test: Effect on blood pressure of normal rats by single oral administration
Format: in vivo, Wistar rats
Conditions: Rattus norvegicus, po, 8 h; 1.0 mg/kg p.o., single, normal rats; read-out: blood pressure reduction at 8 h after the administration
Each entry below carries its recorded inhibition in vivo at 1 mg/kg.

COMPOUND	inhibition in vivo at 1 mg/kg (%)
CCOc1nc2cccc(C(=O)OCCOC(C)=O)c2n1Cc1ccc(-c2ccccc2-c2noc(=O)[nH]2)cc1 [QR01004]	6.7
CCOc1nc2cccc(C(=O)OCOC(=O)C(C)(C)C)c2n1Cc1ccc(-c2ccccc2-c2noc(=O)[nH]2)cc1 [QR01005]	3.6
CCOc1nc2cccc(C(=O)OC(C)OC(=O)OC(C)C)c2n1Cc1ccc(-c2ccccc2-c2noc(=O)[nH]2)cc1 (stereo not shown) [QR01003]	5.4
CCOc1nc2cccc(C(=O)OCc3c(C)no[n+]3[O-])c2n1Cc1ccc(-c2ccccc2-c2noc(=O)[nH]2)cc1 [QR01025]	6.2
